Target: T1, Human CXCR7 (human, UniProt P25106 1-362)
T1 construct: also called hCXCR7; CXCR7-LP
T1 sequence (P25106 whole entry): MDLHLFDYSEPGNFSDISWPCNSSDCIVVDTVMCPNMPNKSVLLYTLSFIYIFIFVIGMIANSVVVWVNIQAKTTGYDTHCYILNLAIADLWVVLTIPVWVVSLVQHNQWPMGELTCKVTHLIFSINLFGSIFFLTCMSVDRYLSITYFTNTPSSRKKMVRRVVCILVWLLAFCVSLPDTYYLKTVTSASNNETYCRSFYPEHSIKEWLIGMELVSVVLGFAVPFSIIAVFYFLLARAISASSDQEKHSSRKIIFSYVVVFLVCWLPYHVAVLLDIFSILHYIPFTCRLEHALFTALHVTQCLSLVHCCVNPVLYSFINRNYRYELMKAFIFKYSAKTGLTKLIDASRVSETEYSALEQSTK
Assay: FACS, ratio of Hek293 hCXCR7 signal over control cells
Protocol: Clones representing distinct Nanobody B-cell lineages were tested as periplasmic extracts for their binding to cell surface exposed CXCR7. In this assay, 5-fold dilutions of periplasmic extract were incubated with Hek293 hCXCR7 and Hek293 wt cells. Binding of the Nanobodies was detected using mouse anti-myc (Serotec), followed by anti-mouse IgG-PE (Jackson Immununoresearch). […]
Please go through the items and note down their Fod Hek CXCR7/CXCR4.
Answers are plain numbers, in fold.

[[record]]
binder = "07C3 with Tag-1 (VHH) VHH: EVQLVESGGGLVQAGESLTLSCAASGRTLSAYIMGWFRQAPGKEREFVAGIWSGGYTHLADSAKGRFSISRDNAKNTVYLQMNGLKPEDTAVYYCAAGLRGRQYSNWGQGTQVTVSS"
val = 73.2


Please give Fod Hek CXCR7/CXCR4, item by item, for the list that follows.
1. 08A5 with Tag-1 (VHH) VHH: EVQLVESGGGLVQAGDSLRLSCAASGLTFSNYDMGWFRQAPGKEREFVGASWWSGGAPYYSDSVKGRFTISRDNAKNTVYLQANSLRPEDTAVYYCAAKRLRSFASGGSYDYWGQGTQVTVSS
2. 08A10 with Tag-1 (VHH) VHH: EVQLVESGGGLVQAGGSLRLSCAASGSIFSIAAMGWYRQATGKQRELVATITDGGTTTYADSVKGRVTISRDRSANTVYLAMNNLKPDDTAVYYCYAYLRYTSRVPGDNYWGQGTQVTVSS

60.1
85.1

Would you mind telling me what Fod Hek CXCR7/CXCR4 value was observed for 07B11 with Tag-1 (VHH) VHH: EVQLVESGGNLVQAGGSLGLSCAASVSISSIHIMGWYRQAPGKQRDLVATITSGGSTAYADSVKGRFTVSKDNAKNTVYLQMDSLKPEDTSVYYCAAEVRNGVFGKWNHYWGQGTQVTVSS ?
110
